Biological target: PGI2 receptor (Homo sapiens)
Construct: host or cells: thawed 'PGI2 cell' suspension
Sequence (P43119 whole entry, species assumed): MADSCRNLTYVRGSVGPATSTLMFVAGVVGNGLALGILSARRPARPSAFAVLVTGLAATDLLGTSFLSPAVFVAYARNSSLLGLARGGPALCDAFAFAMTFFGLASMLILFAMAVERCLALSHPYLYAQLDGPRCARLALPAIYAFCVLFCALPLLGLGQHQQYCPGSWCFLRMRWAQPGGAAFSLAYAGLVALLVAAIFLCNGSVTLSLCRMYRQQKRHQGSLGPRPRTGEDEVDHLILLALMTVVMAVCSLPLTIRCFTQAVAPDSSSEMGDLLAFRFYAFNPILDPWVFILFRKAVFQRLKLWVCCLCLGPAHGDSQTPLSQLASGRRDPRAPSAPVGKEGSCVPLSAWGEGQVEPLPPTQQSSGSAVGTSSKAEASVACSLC
Experiment: PGI2 cAMP cell assay in vitro (HTRF cAMP)
Assay type: cell-based
Conditions: cells in vitro
Catalogue of compounds with associated log10 EC50
PROPERTY_MEASURED: log10 EC50 (log10 of the value in nM)

>  <RECORD_SMILES>
O=C(O)COCC1CCN(c2nccc(N(c3ccccc3)c3ccc(Cl)cc3)n2)CC1

>  <EXPERIMENTAL_RESULT>
3.48

$$$$
>  <RECORD_SMILES>
COc1ccc(N(c2ccc(Cl)cc2)c2cncc(N3CCC(F)(COCC(=O)O)CC3)n2)nc1

>  <EXPERIMENTAL_RESULT>
2.66

$$$$
>  <RECORD_SMILES>
O=C(O)COCC1CCN(c2cncc(N(c3ccccc3)c3cccc(Cl)c3)n2)CC1

>  <EXPERIMENTAL_RESULT>
0.68

$$$$
>  <RECORD_SMILES>
CS(=O)(=O)NC(=O)COCC1(F)CCN(c2cncc(N(c3ccccc3)c3ccccc3)n2)CC1

>  <EXPERIMENTAL_RESULT>
1.90

$$$$
>  <RECORD_SMILES>
O=C(O)COCC1(F)CCN(c2cncc(N(c3ccccc3)c3ccc(Cl)cn3)n2)CC1

>  <EXPERIMENTAL_RESULT>
0.03

$$$$
